species: Mus musculus; experiment: Antipsychotic effect was tested against motility scores in reserpinized mice at a control value of 11; type: functional; also: test concentration or dose not given here
property.name: Motility

CCN(C(=O)c1ccccc1)c1cc(C)cc(C)n1    31
COc1ccc(Cl)cc1C(=O)Nc1cc(C)cc(C)n1    19
CC(=O)Nc1cccc(C(=O)Nc2cc(C)cc(C)n2)c1    8
COc1ccc(S(C)(=O)=O)cc1C(=O)Nc1cc(C)cc(C)n1    2
COc1cccc(C(=O)Nc2cc(C)cc(C)n2)c1    0
CCN(C(=O)c1cccc(Cl)c1)c1cc(C)cc(C)n1    21
Cc1cc(C)nc(NC(=O)c2ccc(F)cc2)c1    113
CCCN(C(=O)c1ccccc1)c1cc(C)cc(C)n1    8
CSc1ccc(C(=O)Nc2cc(C)cc(C)n2)cc1    0
Cc1cc(C)nc(NC(=O)c2ccccc2Cl)c1    4
Cc1cc(C)nc(NC(=O)c2ccccc2O)c1    0
Cc1cc(C)nc(NC(=O)c2cccc(Br)c2)c1    21
COc1ccccc1C(=O)Nc1cc(C)cc(C)n1    7
Cc1cc(C)nc(NC(=O)c2cccc(Cl)c2)c1    52
CC(=O)Nc1ccc(C(=O)Nc2cc(C)cc(C)n2)cc1    12
CCOc1ccc(C(=O)Nc2cc(C)cc(C)n2)cc1    4
Cc1cc(C)nc(NC(=O)c2ccccc2)c1    83
Cc1cc(C)nc(NC(=O)c2ccc([N+](=O)[O-])cc2)c1    0
Cc1cc(C)nc(NC(=O)c2ccc(Cl)cc2)c1    72
CCN(C(=O)c1ccc(F)cc1)c1cc(C)cc(C)n1    29
Cc1cccc(C(=O)Nc2cc(C)cc(C)n2)c1    0
Cc1cc(C)nc(NC(=O)c2ccc(Br)cc2)c1    0
CCS(=O)(=O)c1ccc(OC)c(C(=O)Nc2cc(C)cc(C)n2)c1    16
Cc1cc(C)nc(NC(=O)c2cccc(C(F)(F)F)c2)c1    4
Cc1cc(C)nc(NC(=O)c2cccc(N)c2)c1    4
Cc1cc(C)nc(NC(=O)c2cccc([N+](=O)[O-])c2)c1    15
Cc1cc(C)nc(NC(=O)c2ccc(N)cc2)c1    9
COc1ccc(C(=O)Nc2cc(C)cc(C)n2)cc1    0

The measured values listed here are drawn from ChEMBL document CHEMBL1122987.
